Entry source: patent US20250152504A1

Test: Triple active compound (RAL, MVC, ETR) intrauterine system in vivo study, tissue and secretion concentrations
Conditions: female, human, in vivo, 7 days after insertion; read-out: tissue concentration, Vagina
RECORDED_METRIC: concentration at 7 days (ng/mL)

MOLECULE: Cc1nnc(C(=O)NC(C)(C)c2nc(C(=O)NCc3ccc(F)cc3)c(O)c(=O)n2C)o1
MEASURED_VALUE: 194

====

Experiment: Triple active compound (RAL, MVC, ETR) intrauterine system in vivo study, tissue and secretion concentrations
Details: female, human, in vivo, 28 days after insertion; read-out: tissue concentration, Endometrium
RECORDED_METRIC: concentration at 28 days

MOLECULE: Cc1nnc(C(=O)NC(C)(C)c2nc(C(=O)NCc3ccc(F)cc3)c(O)c(=O)n2C)o1
MEASURED_VALUE: 237 ng/mL

====

Assay: Triple active compound (RAL, MVC, ETR) intrauterine system in vivo study, tissue and secretion concentrations
Conditions: female, human, endometrium, other: intrauterine (implanted intrauterine system); 28 days after insertion; read-out: tissue concentration, Endometrium

MOLECULE: Cc1cc(C#N)cc(C)c1Oc1nc(Nc2ccc(C#N)cc2)nc(N)c1Br
concentration at 28 days [ng/mL]: 434

====

Assay: Triple active compound (RAL, MVC, ETR) intrauterine system in vivo study, tissue and secretion concentrations
Settings: female, human, in vivo, 28 days after insertion; read-out: tissue concentration, Cervix

MOLECULE: Cc1nnc(C(=O)NC(C)(C)c2nc(C(=O)NCc3ccc(F)cc3)c(O)c(=O)n2C)o1
concentration at 28 days, ng/mL: 237
